assayed system: KRAS G12C mutant (Homo sapiens, UniProt P01116, G12C)
Construct: 50 μM G12C K-Ras4B (1-169) protein and 1 mM BODIPY® FL GDP; His tag (N, cleaved yes); made in house; host or cells: E. coli BL21 (DE3)
Sequence (P01116 1-169 isoform P01116-2 G12C): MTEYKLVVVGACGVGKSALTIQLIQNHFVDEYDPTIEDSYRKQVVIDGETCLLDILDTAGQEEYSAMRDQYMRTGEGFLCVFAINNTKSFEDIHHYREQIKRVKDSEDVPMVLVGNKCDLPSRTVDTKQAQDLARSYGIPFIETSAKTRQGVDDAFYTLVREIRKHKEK
procedure details: Inhibition of SOS1-mediated nucleotide (GDP-GTP) exchange reaction of KRAS G12C mutant, BODIPY FL GDP fluorescence
Assay type: biochemical
condition set: preincubated 25° C. 4 hours with 25 nM KRAS G12C bound with BODIPY FL GDP; SOS1 100 nM, GppNHp 1 μM, 30 minutes
measured endpoint: IC50 (nM)
Give just the number in nM; leave the unit off.

Reference set (3 entries):
> print(dat)
                                   molecule  measured
1  C=CC(=O)N1CC(NC(=O)c2cnc(CNc3nc(C(C)(C)C)c(Cl)cc3O)n2C)C1 [Example 83]        23
2  C=CC(=O)N1CC(NC(=O)c2c(C)nc(CNc3cc(C(C)(C)C)c(Cl)cc3O)n2Cc2ccccc2)C1 [Example 40]        13
3  C=CC(=O)N1CC(NC(=O)c2c(I)nc(CNc3cc(C(C)(C)C)c(Cl)cc3O)n2C)C1 [Example 27]        16

Lab note: molecule C=CC(=O)N1CC(NC(=O)c2c(C(F)(F)F)nc(CNc3cc(C(C)(C)C)c(C)cc3O)n2C(C)C)C1 [Example 77] tested on KRAS G12C mutant (Homo sapiens, UniProt P01116, G12C); recorded IC50 was 240
